Would you kindly list pKd for each of these variants?
B1: scFv; the commonest letter at each place (parent)
chain 1: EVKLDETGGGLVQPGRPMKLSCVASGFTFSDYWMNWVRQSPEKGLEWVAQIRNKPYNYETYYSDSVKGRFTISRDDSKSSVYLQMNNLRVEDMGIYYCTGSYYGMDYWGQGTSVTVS
chain 2: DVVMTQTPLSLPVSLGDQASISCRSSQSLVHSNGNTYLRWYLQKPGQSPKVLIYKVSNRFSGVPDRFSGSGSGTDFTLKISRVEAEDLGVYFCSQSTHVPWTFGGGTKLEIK

- Variants of: B1
- experiment summary: Kd (Tite-Seq)
- test settings: with fluorescein; format: scFv 4-4-20, heavy + light
pKd: −log10 of the molar value.

[Q] Can you look up the measured pKd of chain 1 Y32I M34A for me?
[A] ≤ 5.00

[Q] // repeat for chain 1 D31N N35T and report
[A] ≤ 5.00

[Q] // repeat for chain 1 T28Q D31A and report
[A] 8.24

[Q] // repeat for chain 1 G100V S101H and report
[A] ≤ 5.00

[Q] // repeat for chain 1 G100D G109V and report
[A] ≤ 5.00

[Q] // repeat for chain 1 F29A W33I and report
[A] ≤ 5.00

[Q] // repeat for chain 1 F29I V37D and report
[A] ≤ 5.00

[Q] // repeat for chain 1 D106W W108K and report
[A] ≤ 5.00

[Q] // repeat for chain 1 W108Q G109Q and report
[A] ≤ 5.00

[Q] // repeat for chain 1 F29A M34K V37T and report
[A] ≤ 5.00

[Q] // repeat for chain 1 Y102F W108T and report
[A] 9.32

[Q] // repeat for chain 1 T28N D31C and report
[A] 8.33

[Q] // repeat for chain 1 W33C V37W and report
[A] ≤ 5.00

[Q] // repeat for chain 1 F29M W33V and report
[A] ≤ 5.00

[Q] // repeat for chain 1 S101F W108S G109S and report
[A] ≤ 5.00

[Q] // repeat for chain 1 Y107R G109S and report
[A] 5.61

[Q] // repeat for chain 1 F29N N35A and report
[A] ≤ 5.00

[Q] // repeat for chain 1 W33T N35Q and report
[A] ≤ 5.00

[Q] // repeat for chain 1 S30G W33V and report
[A] ≤ 5.00

[Q] // repeat for chain 1 G104T G109L and report
[A] ≤ 5.00

[Q] // repeat for chain 1 D106H and report
[A] ≤ 5.00

[Q] // repeat for chain 1 Y103S and report
[A] 7.50

[Q] // repeat for chain 1 W108F and report
[A] ≥ 9.50

[Q] // repeat for chain 1 G104H G109H and report
[A] ≤ 5.00

[Q] // repeat for chain 1 G104F and report
[A] ≤ 5.00

[Q] // repeat for chain 1 Y32V V37K and report
[A] 5.11

[Q] // repeat for chain 1 Y32P M34N and report
[A] ≤ 5.00

[Q] // repeat for chain 1 M34P V37A and report
[A] ≤ 5.00

[Q] // repeat for chain 1 G100F M105K and report
[A] ≤ 5.00

[Q] // repeat for chain 1 S101W Y103R G104S and report
[A] ≤ 5.00

[Q] // repeat for chain 1 G104R Y107W and report
[A] ≤ 5.00

[Q] // repeat for chain 1 S101E W108G and report
[A] ≤ 5.00

[Q] // repeat for chain 1 M34I W36S and report
[A] ≤ 5.00

[Q] // repeat for chain 1 S30F Y32Q and report
[A] ≤ 5.00

[Q] // repeat for chain 1 D31A Y32K M34C and report
[A] ≤ 5.00

[Q] // repeat for chain 1 Y107R W108N and report
[A] ≤ 5.00

[Q] // repeat for chain 1 M105Y W108R and report
[A] ≤ 5.00

[Q] // repeat for chain 1 M34W W36T and report
[A] ≤ 5.00

[Q] // repeat for chain 1 G100V W108N and report
[A] ≤ 5.00

[Q] // repeat for chain 1 G104L D106G and report
[A] ≤ 5.00

[Q] // repeat for chain 1 G100Y Y107K and report
[A] ≤ 5.00

[Q] // repeat for chain 1 W33L and report
[A] ≤ 5.00

[Q] // repeat for chain 1 D31W and report
[A] 8.53

Attribution: the FLAb antibody collection (doi:10.7554/elife.23156)
